molecular target: Cytochrome P450 3A4 (Homo sapiens) (UniProt P08684); assay: qHTS Assay for Inhibitors and Substrates of Cytochrome P450 3A4 (AID 884); settings: recombinant CYP3A4, Luciferin-PPXE luminescence; series mostly up to 57.1 µM; further: potency means the concentration at half of the fitted maximal effect; nearly all actives have a fitted effect of over 50% in size
Sequence (P08684 whole entry, looked up): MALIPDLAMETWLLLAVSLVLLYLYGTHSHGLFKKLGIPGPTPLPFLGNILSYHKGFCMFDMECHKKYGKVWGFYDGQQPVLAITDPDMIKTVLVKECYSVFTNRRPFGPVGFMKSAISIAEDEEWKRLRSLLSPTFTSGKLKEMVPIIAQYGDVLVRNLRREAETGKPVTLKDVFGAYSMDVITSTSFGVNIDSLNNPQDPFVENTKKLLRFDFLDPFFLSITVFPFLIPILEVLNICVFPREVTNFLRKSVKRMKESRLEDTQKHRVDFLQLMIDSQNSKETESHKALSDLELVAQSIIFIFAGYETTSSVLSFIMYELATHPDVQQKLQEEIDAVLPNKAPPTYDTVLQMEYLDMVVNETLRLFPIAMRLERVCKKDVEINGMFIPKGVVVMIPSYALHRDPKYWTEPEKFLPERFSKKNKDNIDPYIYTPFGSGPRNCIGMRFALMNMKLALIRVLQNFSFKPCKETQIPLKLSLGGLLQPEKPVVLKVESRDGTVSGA
Inconclusive results are not listed. Activity calls are given as the source filed them. The call rests on the fitted dose curve; in most records, active means well fitted inhibition curve with a large enough effect; inconclusive means small, poorly fitted or top-dose-only effect; inactive means no such curve, though single readings can be large or run the other way.

>  <compound>
COC(=O)c1ccc(C(NC(=O)OCc2ccccc2)/C(F)=C/[C@@H](C)C(=O)NCCN2CCOCC2)cc1 (stereo partly drawn)

>  <studyTarget>
Cytochrome P450 3A4 (Homo sapiens) (UniProt P08684)

>  <Potency>
3.98 µM (active)

$$$$
>  <compound>
C[C@@H]1C=C[C@](Cc2ccccc2)(C(=O)NCCc2c[nH]c3ccccc23)N1C(=O)c1ccccc1

>  <studyTarget>
Cytochrome P450 3A4 (Homo sapiens) (UniProt P08684)

>  <Potency>
2.51 µM (active)

$$$$
>  <compound>
COc1ccc(/C=C/N(CCc2ccc(OC)c(OC)c2)C(C)=O)cc1

>  <studyTarget>
Cytochrome P450 3A4 (Homo sapiens) (UniProt P08684)

>  <Potency>
2 µM (active)

$$$$
>  <compound>
C[C@@H]1C=C[C@](Cc2ccccc2)(C(=O)NCC2CC2)N1C(=O)c1ccccc1

>  <studyTarget>
Cytochrome P450 3A4 (Homo sapiens) (UniProt P08684)

>  <Potency>
12.6 µM (active)

$$$$
>  <compound>
Cc1ccc(S(=O)(=O)N[C@H]2COC(=O)C/C=C\[C@H](C)[C@@H](NS(=O)(=O)c3ccc(C)cc3)COC(=O)C/C=C\[C@@H]2C)cc1

>  <studyTarget>
Cytochrome P450 3A4 (Homo sapiens) (UniProt P08684)

>  <Potency>
3.98 µM (active)

$$$$
>  <compound>
CC(C)=CCC/C(C)=C/CO/N=C1/C[C@@H](O)[C@@H](O)[C@@H]2[C@@H]3C(=O)N(Cc4ccc5c(c4)OCO5)C(=O)[C@H]3CC[C@H]12

>  <studyTarget>
Cytochrome P450 3A4 (Homo sapiens) (UniProt P08684)

>  <Potency>
1.58 µM (active)

$$$$
>  <compound>
CC(=O)OCC1OC(c2ccc3c(c2)OCO3)C=CC1OC(C)=O (stereo not drawn)

>  <studyTarget>
Cytochrome P450 3A4 (Homo sapiens) (UniProt P08684)

>  <Potency>
3.98 µM (active)

$$$$

Numbers sourced from PubChem BioAssay (NCATS).
